Experiment: Toxicokinetics in Beagle dogs, 7 day repeat oral administration
Assay type: in vivo, Beagle dog
Conditions: female, Beagle, dog, plasma, po, 20 mg/kg, Day7, Female, 20 mg/kg PO BID
PROPERTY: Cmax (ng/mL)

compound_structure=CC(C)CN(c1ncc([C@H](C)CC(=O)O)cc1Nc1ccc(Cl)cn1)C1CCOCC1 property=Cmax value=4400

----------
Assay: Toxicokinetics in Beagle dogs, 7 day repeat oral administration
Type: in vivo, Beagle dog
Settings: Beagle, dog, plasma; Day1, Male, 20 mg/kg PO BID
PROPERTY: Tmax (min)

compound_structure=CC(C)CN(c1ncc([C@H](C)CC(=O)O)cc1Nc1ccc(Cl)cn1)C1CCOCC1 property=Tmax value=30

----------
Biological target: indoleamine 2, 3-dioxygenase (IDO1) (Homo sapiens)
Sequence (P14902 whole entry): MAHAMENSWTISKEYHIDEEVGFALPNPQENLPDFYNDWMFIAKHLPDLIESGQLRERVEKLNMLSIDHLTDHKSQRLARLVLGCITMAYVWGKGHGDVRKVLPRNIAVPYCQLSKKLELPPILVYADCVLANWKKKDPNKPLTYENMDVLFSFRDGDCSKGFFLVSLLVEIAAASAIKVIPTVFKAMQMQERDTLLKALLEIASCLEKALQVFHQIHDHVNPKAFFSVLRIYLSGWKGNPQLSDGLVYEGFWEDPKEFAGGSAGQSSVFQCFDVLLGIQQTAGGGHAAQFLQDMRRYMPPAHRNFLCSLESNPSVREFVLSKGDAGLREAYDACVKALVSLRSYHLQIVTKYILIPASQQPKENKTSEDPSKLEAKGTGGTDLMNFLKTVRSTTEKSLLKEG
Experiment: IDO1 HeLa RapidFire MS Assay (kynurenine by mass spectrometry)
Format: cell-based
Settings: HeLa cells stimulated with IFN-γ, 2 days; recorded as pIC50; read-out: IDO1 HeLa PXC50 (converted)
Rule for this label: Met means IC50 is less than 10 nM; Not met means IC50 is at least 10 nM.

compound=CC(C)CN(c1ncc(-c2ccccc2C(=O)O)cc1Nc1nc(C(F)(F)F)ns1)C1CCOCC1 cat="Not met"
compound="CC(C)CN(c1ncc(C(C)CC(=O)O)cc1Nc1ccc(C#N)cn1)C1CCOCC1 (stereo not shown)" cat="Not met"
compound=CC(C)CN(CC(C)C)c1ncc([C@H](C)CC(=O)O)cc1Nc1nc(C(F)(F)F)ns1 cat=Met
compound=CC(C)CN(c1ncc([C@H](C)CC(=O)O)cc1Nc1ccc(Cl)cn1)C1CCOCC1 cat=Met
compound="CC(C)CN(c1ncc(C(C)CC(=O)O)cc1Nc1nnc(C2CC2)s1)C1CCOCC1 (stereo not shown)" cat=Met
compound=CC(C)CN(c1ncc([C@H](C)CC(=O)O)cc1Nc1nc(C(F)(F)F)ns1)C1CC(F)(F)C1 cat="Not met"
compound="CC(C)CN(c1ncc(C(C)CC(=O)O)cc1Nc1ccc(Cl)cn1)C1CCOCC1 (stereo not shown)" cat=Met
compound=CC(C)CN(c1ncc([C@H](C)CC(=O)O)cc1Nc1ccc(Cl)c(F)n1)C1CCOCC1 cat="Not met"
compound="CC(C)CN(CC(C)C)c1ncc(C(C)CC(=O)O)cc1Nc1nc(Cl)ns1 (stereo not shown)" cat="Not met"
compound=CC(C)CN(c1ncc([C@H](C)CC(=O)O)cc1Nc1cnc(Cl)nc1)C1CCOCC1 cat="Not met"
compound=CC(C)CN(c1ncc([C@H](C)CC(=O)O)cc1Nc1nc(Cl)ns1)C1CCC(F)(F)CC1 cat="Not met"

Origin of the recorded values: patent US10787442B2
